Numbers sourced from ChEMBL document CHEMBL1154960.

Test system: Staphylococcus aureus
protocol: Antibacterial activity against tarO deficient Staphylococcus aureus RN4220 assessed as cell survival at 100 uM after 12 hrs by optical density plate reader method
Format: functional
condition.summary: RN4220, 12 h
Think of 80% as a floor: if survival at 100 µM stands on it or above, it is y; beneath it, n.

>  <molecule>
Cn1c(=O)c2c(-c3ccc(Cl)cc3)n3c(c2n(C)c1=O)C(c1ccccc1)Nc1ccccc1-3 (stereo not given)

>  <target.entity>
Staphylococcus aureus

>  <category>
n

$$$$
>  <molecule>
Cn1c(=O)c2c(-c3ccccc3)n3c(c2n(C)c1=O)C(c1ccc([N+](=O)[O-])cc1)Nc1ccccc1-3 (stereo not given)

>  <target.entity>
Staphylococcus aureus

>  <category>
n

$$$$
>  <molecule>
Cn1c(=O)c2c(-c3ccccc3)n3c(c2n(C)c1=O)C(c1ccc(F)cc1)Nc1ccccc1-3 (stereo not given)

>  <target.entity>
Staphylococcus aureus

>  <category>
n

$$$$
>  <molecule>
Cn1c(=O)c2c(-c3ccccc3)n3c(c2n(C)c1=O)C(c1ccccc1[N+](=O)[O-])Nc1ccccc1-3 (stereo not given)

>  <target.entity>
Staphylococcus aureus

>  <category>
y

$$$$
>  <molecule>
COc1ccc(O)c(C2Nc3ccccc3-n3c(-c4ccccc4)c4c(=O)n(C)c(=O)n(C)c4c32)c1 (stereo not given)

>  <target.entity>
Staphylococcus aureus

>  <category>
n

$$$$
>  <molecule>
COc1ccc(-c2c3c(=O)n(C)c(=O)n(C)c3c3n2-c2ccccc2NC3c2cc(O)ccc2O)cc1 (stereo not given)

>  <target.entity>
Staphylococcus aureus

>  <category>
n

$$$$
>  <molecule>
Cc1ccc(C2Nc3ccccc3-n3c(-c4ccccc4)c4c(=O)n(C)c(=O)n(C)c4c32)cc1 (stereo not given)

>  <target.entity>
Staphylococcus aureus

>  <category>
n

$$$$
>  <molecule>
Cc1ccc(-c2c3c(=O)n(C)c(=O)n(C)c3c3n2-c2ccccc2NC3c2ccc(C)cc2O)cc1 (stereo not given)

>  <target.entity>
Staphylococcus aureus

>  <category>
n

$$$$
>  <molecule>
Cc1ccc(C2Nc3ccccc3-n3c(-c4ccccc4)c4c(=O)n(C)c(=O)n(C)c4c32)o1 (stereo not given)

>  <target.entity>
Staphylococcus aureus

>  <category>
y

$$$$
>  <molecule>
COc1ccccc1C1Nc2ccccc2-n2c(-c3ccccc3)c3c(=O)n(C)c(=O)n(C)c3c21 (stereo not given)

>  <target.entity>
Staphylococcus aureus

>  <category>
y

$$$$
>  <molecule>
COc1ccc(-c2c3c(=O)n(C)c(=O)n(C)c3c3n2-c2ccccc2NC3c2ccco2)cc1 (stereo not given)

>  <target.entity>
Staphylococcus aureus

>  <category>
n

$$$$
>  <molecule>
COc1ccc(-c2c3c(=O)n(C)c(=O)n(C)c3c3n2-c2ccccc2NC3c2ccccc2OC)cc1 (stereo not given)

>  <target.entity>
Staphylococcus aureus

>  <category>
y

$$$$
>  <molecule>
Cn1c(=O)c2c(-c3ccccc3)n3c(c2n(C)c1=O)C(c1cccc([N+](=O)[O-])c1)Nc1ccccc1-3 (stereo not given)

>  <target.entity>
Staphylococcus aureus

>  <category>
n

$$$$
>  <molecule>
Cn1c(=O)c2c(-c3ccccc3)n3c(c2n(C)c1=O)C(c1ccco1)Nc1ccccc1-3 (stereo not given)

>  <target.entity>
Staphylococcus aureus

>  <category>
y

$$$$
>  <molecule>
Cc1cc2c(cc1C)-n1c(-c3ccccc3)c3c(=O)n(C)c(=O)n(C)c3c1C(c1ccco1)N2 (stereo not given)

>  <target.entity>
Staphylococcus aureus

>  <category>
y

$$$$
>  <molecule>
COc1ccc(-c2c3c(=O)n(C)c(=O)n(C)c3c3n2-c2ccccc2NC3c2ccc(OC)cc2)cc1 (stereo not given)

>  <target.entity>
Staphylococcus aureus

>  <category>
y

$$$$
>  <molecule>
Cc1ccc(C2Nc3cc(C)c(C)cc3-n3c(-c4ccccc4)c4c(=O)n(C)c(=O)n(C)c4c32)o1 (stereo not given)

>  <target.entity>
Staphylococcus aureus

>  <category>
y

$$$$

---

The following molecules are listed with their measured survival at 100 µM values.
Test system: Staphylococcus aureus
protocol: Antibacterial activity against Staphylococcus aureus RN4220 assessed as cell survival at 100 uM after 12 hrs by optical density plate reader method
Format: functional
condition.summary: RN4220, 12 h

>  <molecule>
COc1ccc(C2Nc3ccccc3-n3c(-c4ccccc4)c4c(=O)n(C)c(=O)n(C)c4c32)cc1 (centres undefined)

>  <survival at 100 µM>
37%

$$$$
>  <molecule>
Cc1ccc(-c2c3c(=O)n(C)c(=O)n(C)c3c3n2-c2ccccc2NC3c2ccc(C#N)cc2)cc1 (centres undefined)

>  <survival at 100 µM>
95%

$$$$
>  <molecule>
COc1ccc(O)c(C2Nc3ccccc3-n3c(-c4ccccc4)c4c(=O)n(C)c(=O)n(C)c4c32)c1 (centres undefined)

>  <survival at 100 µM>
20%

$$$$
>  <molecule>
Cn1c(=O)c2c(-c3ccccc3)n3c(c2n(C)c1=O)C(c1ccccc1[N+](=O)[O-])Nc1ccccc1-3 (centres undefined)

>  <survival at 100 µM>
79%

$$$$

---

Test system: Staphylococcus aureus
protocol: Antibacterial activity against Staphylococcus aureus RN4220 assessed as cell survival at 100 uM after 12 hrs by optical density plate reader method
Assay type: functional
condition.summary: RN4220, 12 h
Think of 60% as a floor: if survival at 100 µM stands on it or above, it is Y; beneath it, N.

>  <molecule>
Cc1ccc(C2Nc3ccccc3-n3c(-c4ccccc4)c4c(=O)n(C)c(=O)n(C)c4c32)o1 (stereo not drawn)

>  <category>
Y

$$$$
>  <molecule>
Cn1c(=O)c2c(-c3ccccc3)n3c(c2n(C)c1=O)C(c1ccc([N+](=O)[O-])cc1)Nc1ccccc1-3 (stereo not drawn)

>  <category>
N

$$$$
>  <molecule>
COc1ccc(-c2c3c(=O)n(C)c(=O)n(C)c3c3n2-c2ccccc2NC3c2ccccc2OC)cc1 (stereo not drawn)

>  <category>
Y

$$$$
>  <molecule>
COc1ccc(-c2c3c(=O)n(C)c(=O)n(C)c3c3n2-c2ccccc2NC3c2ccco2)cc1 (stereo not drawn)

>  <category>
N

$$$$
>  <molecule>
Cn1c(=O)c2c(-c3ccc(Cl)cc3)n3c(c2n(C)c1=O)C(c1ccccc1)Nc1ccccc1-3 (stereo not drawn)

>  <category>
Y

$$$$
>  <molecule>
COc1ccc(-c2c3c(=O)n(C)c(=O)n(C)c3c3n2-c2ccccc2NC3c2cc(O)ccc2O)cc1 (stereo not drawn)

>  <category>
N

$$$$
>  <molecule>
Cc1cc2c(cc1C)-n1c(-c3ccccc3)c3c(=O)n(C)c(=O)n(C)c3c1C(c1ccco1)N2 (stereo not drawn)

>  <category>
Y

$$$$
>  <molecule>
COc1ccc(-c2c3c(=O)n(C)c(=O)n(C)c3c3n2-c2ccccc2NC3c2ccc(OC)cc2)cc1 (stereo not drawn)

>  <category>
Y

$$$$

---

Test system: Staphylococcus aureus
protocol: Antibacterial activity against Staphylococcus aureus RN4220 assessed as cell survival at 100 uM after 12 hrs by optical density plate reader method
Type: functional
condition.summary: RN4220, 12 h

>  <compound>
Cc1ccc(C2Nc3ccccc3-n3c(-c4ccccc4)c4c(=O)n(C)c(=O)n(C)c4c32)cc1 (stereo not drawn)

>  <unit.label>
%

>  <survival at 100 µM>
4

$$$$
>  <compound>
Cn1c(=O)c2c(-c3ccccc3)n3c(c2n(C)c1=O)C(c1ccco1)Nc1ccccc1-3 (stereo not drawn)

>  <unit.label>
%

>  <survival at 100 µM>
100

$$$$
>  <compound>
COc1ccccc1C1Nc2ccccc2-n2c(-c3ccccc3)c3c(=O)n(C)c(=O)n(C)c3c21 (stereo not drawn)

>  <unit.label>
%

>  <survival at 100 µM>
85

$$$$
>  <compound>
Cc1ccc(-c2c3c(=O)n(C)c(=O)n(C)c3c3n2-c2ccccc2NC3c2ccc(C)cc2O)cc1 (stereo not drawn)

>  <unit.label>
%

>  <survival at 100 µM>
34

$$$$
>  <compound>
Cc1ccc(C2Nc3cc(C)c(C)cc3-n3c(-c4ccccc4)c4c(=O)n(C)c(=O)n(C)c4c32)o1 (stereo not drawn)

>  <unit.label>
%

>  <survival at 100 µM>
95

$$$$
>  <compound>
Cn1c(=O)c2c(-c3ccccc3)n3c(c2n(C)c1=O)C(c1cc(Cl)ccc1O)Nc1ccccc1-3 (stereo not drawn)

>  <unit.label>
%

>  <survival at 100 µM>
35

$$$$
>  <compound>
Cn1c(=O)c2c(-c3ccccc3)n3c(c2n(C)c1=O)C(c1ccc(F)cc1)Nc1ccccc1-3 (stereo not drawn)

>  <unit.label>
%

>  <survival at 100 µM>
26

$$$$
>  <compound>
Cn1c(=O)c2c(-c3ccccc3)n3c(c2n(C)c1=O)C(c1cccc([N+](=O)[O-])c1)Nc1ccccc1-3 (stereo not drawn)

>  <unit.label>
%

>  <survival at 100 µM>
64

$$$$
